Experiment: 101 and 102 PK studies combined (fasted)
Assay type: in vivo
Settings: human, plasma, oral, 25 mg, 101 and 102 studies combined (FIG. 47), read-out: arithmetic mean AUC0-∞
Reported Property: AUC(0-inf) (ng·h/mL)
Just the number please, in ng·h/mL, no unit attached.

# input molecule: CS(=O)(=O)c1ccc(C2=C(c3ccccc3)C(=O)OC2)cc1 [TRM-201] ; wanted: its AUC(0-inf) 4810

###

Assay: TRM-201-PK-102 single-dose four-period crossover pharmacokinetic study, fasted healthy subjects
Assay type: in vivo, human
Conditions: human, plasma, oral, 20 mg, 102 study only, read-out: geometric mean Cmax
Reported Property: Cmax (ng/mL)
Numeric answer only, unit ng/mL assumed.

Which Cmax is listed for CS(=O)(=O)c1ccc(C2=C(c3ccccc3)C(=O)OC2)cc1 [TRM-201] ? 259

###

Test: TRM-201-PK-102 single-dose four-period crossover pharmacokinetic study, fasted healthy subjects
Assay type: in vivo, human
Conditions: human, plasma, oral, 25 mg, 102 study, 18-40 years, read-out: geometric mean AUC0-∞
Reported Property: AUC(0-inf) (µg·h/mL)
Give the value in µg·h/mL but do not write µg·h/mL after it.

Any idea what AUC(0-inf) was measured for CS(=O)(=O)c1ccc(C2=C(c3ccccc3)C(=O)OC2)cc1 [TRM-201] ? 4.05

###

Assay: TRM-201-PK-102 single-dose four-period crossover pharmacokinetic study, fasted healthy subjects
Format: in vivo, human
Conditions: human, plasma, oral, 17.5 mg, 102 study, Hispanic or Latino subjects, read-out: arithmetic mean AUC0-∞
Procedure: A Single-Dose, Open-Label, Phase 1, Four-Period Crossover Pharmacokinetic Study of TRM-201 (Rofecoxib) 12.5 mg, 17.5 mg, 20 mg and 25 mg Administered to Healthy Subjects in a Fasting State, with Comparison to Historical Pharmacokinetic Parameters of Previously Marketed Rofecoxib (“TRM-201-PK-102” or “102 PK Study”) […] In each of the four dosing periods, subjects fasted overnight for at least 10 hours before study drug dosing. […] Pharmacokinetic and safety endpoints were evaluated. […]
Reported Property: AUC(0-inf)
// unit must come after the numeric part

Recorded AUC(0-inf) of CS(=O)(=O)c1ccc(C2=C(c3ccccc3)C(=O)OC2)cc1 , please. 3520 ng·h/mL

###

Assay: TRM-201-PK-102 single-dose four-period crossover pharmacokinetic study, fasted healthy subjects
Type: in vivo, human
Settings: human, plasma, oral, 25 mg, 102 study, 41-52 years, read-out: geometric mean Cmax
Reported Property: Cmax (ng/mL)
Number in ng/mL, nothing else.

Name the reported Cmax value associated with the molecule CS(=O)(=O)c1ccc(C2=C(c3ccccc3)C(=O)OC2)cc1 321

###

Test: TRM-201-PK-102 single-dose four-period crossover pharmacokinetic study, fasted healthy subjects
Assay type: in vivo, human
Details: male, human, plasma, oral, 17.5 mg, 102 study, males, read-out: arithmetic mean Cmax
Reported Property: Cmax

Report Cmax for CS(=O)(=O)c1ccc(C2=C(c3ccccc3)C(=O)OC2)cc1 please. 201 ng/mL

###

Assay: TRM-201-PK-102 single-dose four-period crossover pharmacokinetic study, fasted healthy subjects
Format: in vivo, human
Settings: human, plasma, oral, 12.5 mg, 102 study, White subjects, read-out: geometric mean AUC0-∞
Reported Property: AUC(0-inf) (µg·h/mL)
Give a bare numeral; the unit µg·h/mL is implied.

Need AUC(0-inf), item CS(=O)(=O)c1ccc(C2=C(c3ccccc3)C(=O)OC2)cc1 1.96
